- Test System: T1, CRH (NT Biotin) (human and mouse, not fully specified; biotin at the N-terminus)
- T1 peptide: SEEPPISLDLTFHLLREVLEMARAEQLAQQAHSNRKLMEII
- Assay Comment: ELISA, biotin peptide on streptavidin plate
- Description: Streptavidin (Thermo, Cat: 21125) was diluted in PBS to a concentration of 2 μg/ml. 100 μl of diluted streptavidin was added per well to ELISA microplates, and the plates were incubated overnight at 4° C. […] 100 μL of ELISA stopping solution (Solarbio, Cat #: C1058) was added to terminate the reaction, and the optical density at 450 nm (OD450 nm) was determined by an ELISA plate reader (Molecular Devices, Spectra max 384 plus).
Quantity: pEC50
Friendly reminder that pEC50 comes from taking -log10 of the concentration in mol/L.

Looking for the measured pEC50 of PR302341 (antibody, human IgG1, kappa, V domains shown, Series 10; mouse variable domains with human IgG1 wildtype Fc) VH: EVQLQQSGPELVKPGASVKMSCKASGYTFTDYFMKWVKQSHGESLEWIGVINPNNGDIFYNQKFKGKATLTVDKSSSTAFMQLNSLTSEDSAVYSCARGTDRALFAYWGQGTLVAVSA VL: DVLMTQTPLSLPVSLGDQASISCRSGQSIVHSDGNTYLEWYLQRPGQSPRLLIYKVSNRFSGVPDRFSGSGSGTDFTLKISRVGAEDLGIYYCFQGSHIPWTFGGGTKLEVKR , can you help?
10.64

Given PR302341-48 (antibody, human IgG1, kappa, V domains shown, Humanized, PTM-removed variant of PR302341) VH: QVQLVQSGAEVKKPGASVKVSCKASGYTFTDYFMKWVRQAPGQGLEWMGVINPNQGDIFYNQKFKGRVTMTVDKSTSTAYMELSSLRSEDTAVYYCARGTDRALFAYWGQGTLVTVSS VL: DVVMTQTPLSSPVTLGQPASISCRSGQSIVHSDANTYLEWYQQRPGQPPRLLIYKVSNRFSGVPDRFSGSGAGTDFTLKISRVEAEDLGVYYCFQGSHIPWTFGGGTKVEIKR , state its recorded pEC50.
10.35

Would you kindly share the measured pEC50 for PR004290 (antibody, human IgG1, kappa, V domains shown, Series 1; human IgG1 wildtype Fc; also called Hybridoma Clone 28b3) VH: EVQLVESGGVLVQPGGSLRLSCAASGFTFSSYWMTWVRQAPGKGLEWVANIKQDGSEKYYVDSVKGRFTISRDNAKNSLFLQMNSLRAEDTAVYYCARTLIFDYWGQGTLVTVSS VL: DIVMTQSPLSLPVTPGEPASISCRSSQSLLHSTGYNSLEWYLQKPGQSPQLLIYLGSNRASGVPDRFSGSGSGTDFTLKISRVEAEDVGIYYCMQTLQTPITFGQGTRLEIKR ?
10.30

What does the data say about its pEC50? Entry: PR005660 (antibody, human IgG1, kappa, V domains shown, PTM-removal variant of PR004290) VH: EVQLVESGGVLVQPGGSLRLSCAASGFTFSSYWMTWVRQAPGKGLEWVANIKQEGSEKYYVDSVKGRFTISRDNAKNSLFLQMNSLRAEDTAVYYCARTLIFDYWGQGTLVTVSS VL: DIVMTQSPLSLPVTPGEPASISCRSSQSLLHSTGYQSLEWYLQKPGQSPQLLIYLGSNRASGVPDRFSGSGSGTDFTLKISRVEAEDVGIYYCMQTLQTPITFGQGTRLEIKR
10.55

Reported pEC50, binder PR302309-11 (antibody, human IgG1, kappa, V domains shown, Humanized variant of PR302309) VH: QIQLVQSGSELKKPGASVKVSCKASGYTFTNYGMNWVRQAPGQGLEWMGWINTYTGEPIYTDDFKGRFVFSLDTSVSTAYLQISSLKAEDTAVYYCSRSTMITTGGVFAYWGQGTLVTVSS VL: DIVMTQTPLSSPVTLGQPASISCRSSQTIVHSDGNTYLEWLQQRPGQPPRLLIYKVSNRFSGVPDRFSGSGAGTDFTLKISRVEAEDVGVYYCFQGSHVPWTFGGGTKVEIKR : ____
10.49

Query: pEC50; subject: PR302341-60 (antibody, human IgG1, kappa, V domains shown, Humanized, PTM-removed variant of PR302341) VH: QVQLVQSGAEVKKPGASVKVSCKASGYTFTDYFMKWVRQAPGQRLEWMGVINPNQGDIFYNQKFKGRVTITRDTSASTAYMELSSLRSEDTAVYYCARGTDRALFAYWGQGTLVTVSS VL: DVVMTQSPLSLPVTLGQPASISCRSGQSIVHSDANTYLEWYQQRPGQSPRLLIYKVSNRFSGVPDRFSGSGSGTDFTLKISRVEAEDLGVYYCFQGSHIPWTFGGGTKVEIKR
10.37

Origin of values: patent US20260042834A1
